- Tested on: HOP-92
- protocol_notes: NCI tumour cell line growth inhibition, 48 h
Active and inactive are the calls of the source. No stated cut-off is given here; in the data, active = GI50 up to about 1.1 µM and inactive = higher.
reported_property: GI50

| compound | test_result |
| --- | --- |
| Cc1cccc(NC(=O)C(=O)C2C(=O)NC(=O)NC2=O)c1C | > 100 µM (inactive) |
| C/C(CC(O)(C(F)(F)F)C(F)(F)F)=N/Nc1ccc([N+](=O)[O-])cc1[N+](=O)[O-] | 1.8 µM (inactive) |

# map each compound to its GI50
1. Cc1c(S(=O)(=O)/N=C(\NN)Nc2ccc(Cl)cc2)sc2ccc(Cl)cc12
2. O=C1NC(=O)C(CC2CCCCCCCCCCC2=O)C(=O)N1 (stereo not given)
3. Cn1ncc2c(Nc3cccc(Cl)c3)nc(Nc3cccc(Cl)c3)nc21
4. CCCCCCOP(=O)(OCCCCCC)C(NC(=O)OCC)(C(F)(F)F)C(F)(F)F
5. C=C1C2CC[C@@](C)(O)C2[C@H]2OC(=O)C(=C)[C@@H]2C[C@H]1O (stereo not given in full)

-- reply
1. 15.1 µM (inactive)
2. > 100 µM (inactive)
3. 10.9 µM (inactive)
4. 28.4 µM (inactive)
5. 27.5 µM (inactive)
